- tested-on: CCR4 (Homo sapiens, UniProt P51679)
- Construct: host or cells: CHO-K1
- Sequence (P51679 1-360): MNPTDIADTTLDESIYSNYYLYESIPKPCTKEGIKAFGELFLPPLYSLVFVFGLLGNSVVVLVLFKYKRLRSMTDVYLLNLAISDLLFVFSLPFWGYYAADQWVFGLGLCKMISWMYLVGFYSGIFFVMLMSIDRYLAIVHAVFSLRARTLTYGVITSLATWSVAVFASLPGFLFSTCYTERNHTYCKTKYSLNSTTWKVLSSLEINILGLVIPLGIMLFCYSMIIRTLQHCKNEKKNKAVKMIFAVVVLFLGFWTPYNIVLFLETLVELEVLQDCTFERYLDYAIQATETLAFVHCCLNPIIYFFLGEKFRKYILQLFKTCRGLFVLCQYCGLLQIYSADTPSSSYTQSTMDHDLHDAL
- method-description: PathHunter eXpress CCR4 CHO-K1 β-Arrestin GPCR Assay, antagonist format with CCL22
- Format: cell-based
- settings: 1 nM CCL22, 0.008 uM
readout-type: Raw Data

[
  {
    "entry-sequence": "ACLSCARHGNQCA [24-12-00-N001, bicyclic peptide ligand, TATA scaffold, from CCR4 cell-based selection]",
    "readout-type": "Raw Data",
    "observed-value": 216507
  },
  {
    "entry-sequence": "ACQLTCLTPARQPGCA [24-14-00-N001, bicyclic peptide ligand, TATA scaffold, from CCR4 cell-based selection]",
    "readout-type": "Raw Data",
    "observed-value": 212749
  }
]

A. ACRAVHSLRCLTTCA [24-17-00-N001, bicyclic peptide ligand, TATA scaffold, from CCR4 cell-based selection]
B. ACLNGCRNTNSQCA [24-11-00-N001, bicyclic peptide ligand, TATA scaffold, from CCR4 cell-based selection]
Lookup: From the recorded data, which exceeds the other in Raw Data: A or B ? Identify your selection by its label.
Found: A
(A: 301675, B: 158208)

---

- tested-on: CCR4 (Homo sapiens, UniProt P51679)
- Construct: host or cells: CHO-K1
- Sequence (P51679 1-360): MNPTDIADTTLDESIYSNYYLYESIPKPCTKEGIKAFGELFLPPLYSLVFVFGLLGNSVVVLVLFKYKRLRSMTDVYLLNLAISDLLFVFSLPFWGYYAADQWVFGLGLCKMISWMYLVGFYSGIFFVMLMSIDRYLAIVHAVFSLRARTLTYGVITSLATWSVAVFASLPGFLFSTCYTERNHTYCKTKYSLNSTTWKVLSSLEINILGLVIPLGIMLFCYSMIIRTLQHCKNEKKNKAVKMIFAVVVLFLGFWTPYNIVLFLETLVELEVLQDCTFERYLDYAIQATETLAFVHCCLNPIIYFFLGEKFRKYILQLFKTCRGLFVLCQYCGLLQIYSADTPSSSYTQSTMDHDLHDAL
- method-description: PathHunter eXpress CCR4 CHO-K1 β-Arrestin GPCR Assay, agonist format
- Format: cell-based
- settings: high concentration, 0.001 uM
readout-type: Raw Data

[
  {
    "entry-sequence": "ACQLTCLTPARQPGCA [24-14-00-N001, bicyclic peptide ligand, TATA scaffold, from CCR4 cell-based selection]",
    "observed-value": 10817
  },
  {
    "entry-sequence": "ACPLMSSVNCTAGCA [24-13-00-N001, bicyclic peptide ligand, TBMB scaffold, from CCR4 cell-based selection]",
    "observed-value": 11252
  },
  {
    "entry-sequence": "ACLNGCRNTNSQCA [24-11-00-N001, bicyclic peptide ligand, TATA scaffold, from CCR4 cell-based selection]",
    "observed-value": 9494
  },
  {
    "entry-sequence": "ACQLTCLPPPRQPGCA [24-15-00-N001, bicyclic peptide ligand, TATA scaffold, from CCR4 cell-based selection]",
    "observed-value": 10900
  },
  {
    "entry-sequence": "ACQTLCNTAEDIRCA [24-16-00-N001, bicyclic peptide ligand, TBMB scaffold, from CCR4 cell-based selection]",
    "observed-value": 10927
  },
  {
    "entry-sequence": "ACLSCARHGNQCA [24-12-00-N001, bicyclic peptide ligand, TATA scaffold, from CCR4 cell-based selection]",
    "observed-value": 10679
  },
  {
    "entry-sequence": "ACRAVHSLRCLTTCA [24-17-00-N001, bicyclic peptide ligand, TATA scaffold, from CCR4 cell-based selection]",
    "observed-value": 11608
  }
]
